- Study target: Jack bean urease (Canavalia ensiformis, UniProt P07374)
- Sequence (P07374 whole entry, looked up): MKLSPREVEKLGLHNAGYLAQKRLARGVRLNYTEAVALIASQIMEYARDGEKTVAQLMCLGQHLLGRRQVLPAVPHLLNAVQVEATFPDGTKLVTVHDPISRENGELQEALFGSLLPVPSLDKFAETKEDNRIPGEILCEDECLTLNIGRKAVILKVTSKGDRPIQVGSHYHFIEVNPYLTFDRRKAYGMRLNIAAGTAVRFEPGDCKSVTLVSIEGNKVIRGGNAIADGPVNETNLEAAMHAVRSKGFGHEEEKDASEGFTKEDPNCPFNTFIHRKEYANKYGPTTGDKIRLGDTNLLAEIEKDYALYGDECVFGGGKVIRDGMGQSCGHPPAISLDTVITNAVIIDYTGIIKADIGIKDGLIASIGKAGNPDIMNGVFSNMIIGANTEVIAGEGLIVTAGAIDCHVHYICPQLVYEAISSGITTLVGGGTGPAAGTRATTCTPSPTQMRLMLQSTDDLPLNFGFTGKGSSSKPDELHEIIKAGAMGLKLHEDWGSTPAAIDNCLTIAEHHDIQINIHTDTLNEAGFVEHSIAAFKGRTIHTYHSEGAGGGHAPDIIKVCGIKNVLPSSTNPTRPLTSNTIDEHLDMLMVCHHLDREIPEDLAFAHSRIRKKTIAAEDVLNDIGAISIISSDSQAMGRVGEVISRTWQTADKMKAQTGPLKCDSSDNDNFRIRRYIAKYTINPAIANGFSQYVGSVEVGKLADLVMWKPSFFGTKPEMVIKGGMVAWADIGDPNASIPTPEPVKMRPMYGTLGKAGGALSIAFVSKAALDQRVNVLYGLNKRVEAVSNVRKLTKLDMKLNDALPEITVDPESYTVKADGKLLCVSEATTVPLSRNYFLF
pIC50: −log10 of the molar value.

# Compound, pIC50
measured = [
    ("CC(C)CCCC(C)CC(=O)NP(N)(N)=O (centres unmarked) [Compound D]", 6.06),
    ("CC(C)CC(=O)NP(N)(N)=O [Compound C, N-(diaminophosphinyl)-3-methylbutanamide]", 5.80),
    ("NP(N)(=O)NC(=O)c1ccccc1 [Control Compound, N-(diaminophosphinyl)benzamide, reference compound]", 6.22),
    ("CC(=CC(=O)NP(N)(N)=O)CCCC(C)C [Compound B]", 5.28),
    ("CC(C)=CC(=O)NP(N)(N)=O [Compound A]", 6.20),
]
